# System: L1210 leukemia ip in BDF1 mice, survival T/C
# protocol-description: NCI In Vivo Anticancer Drug Screen. Data for tumor model L1210 Leukemia (intraperitoneal) in B6D2F1 (BDF1) mice
# stated-conditions: endpoint: mean survival time; dose: 10.0 mg/kg/injection; schedule: Q01DX009 (ip); vehicle: saline
Inconclusive results and toxic doses are left out. Rule as the data show it: active = T/C of 150% or more; inactive = T/C below 125%.
One label from this list, please: active, inactive

State the result this test recorded for "COc1cc(NC(=O)N(CCCl)N=O)cc(OC)c1OC" .
active

State the result this test recorded for "CCCCCCCCCCC[n+]1cccc(C#N)c1" .
inactive

State the result this test recorded for CC(CN)OC12CC3CC(CC(C3)C1)C2 (stereo unspecified) .
inactive

State the result this test recorded for "O=C(C=C(C(F)(F)Cl)C(F)(F)Cl)c1cccs1" .
inactive

State the result this test recorded for "CN(C)CCOC(=O)c1ccccc1CCl" .
inactive

State the result this test recorded for "CCN(C)N=Nc1cccnc1" .
inactive

###

# Test system: L1210 leukemia ip in BDF1 mice, survival T/C
# protocol-description: NCI In Vivo Anticancer Drug Screen. Data for tumor model L1210 Leukemia (intraperitoneal) in B6D2F1 (BDF1) mice
# stated-conditions: endpoint: mean survival time; dose: 12.5 mg/kg/injection; schedule: Q01DX009 (ip); vehicle: saline; higher = longer survival
# Procedure: The antitumor activity of compounds was measured in mice bearing transplantable tumors. Survival or tumor size were measured and the results are expressed as the measurement made in the treated group (T) divided by the measurement made in the vehicle treated control group (C). The tumor model used in this assay is L1210 Leukemia (intraperitoneal) in B6D2F1 (BDF1) mice
Toxic doses and inconclusive results are not listed.
I'd appreciate it if you could supply T/C values for the items below.

Given the compound "N#CC[CH2][Sn]([Br])([Br])[CH2]CC#N" , what is its reported T/C?
103 % of control

Given the compound "NC(=O)OCCCc1ccccc1" , what is its reported T/C?
112 % of control

Given the compound "CC1(C)C(=O)N(Cl)C(=O)N1Cl" , what is its reported T/C?
99 % of control

Given the compound "NC1Cc2ccccc2C1" , what is its reported T/C?
98 % of control

Given the compound "CCSc1ccc2c(c1)N(CCCN1CCN(C)CC1)c1ccccc1S2" , what is its reported T/C?
100 % of control

Given the compound "O=C(C=C(C(F)(F)F)C(F)(F)F)c1cccc(Cl)c1" , what is its reported T/C?
100 % of control

Given the compound CC1(C)CN1P(=S)(N1CC1(C)C)N1CC1(C)C (centres undefined) , what is its reported T/C?
98 % of control

Given the compound CC1(C)C(O)(C#N)C(C)(C)C1(O)C#N (centres undefined) , what is its reported T/C?
105 % of control

Given the compound "S=P(N1CC1)(N1CC1)N1CC1" , what is its reported T/C?
118 % of control

###

# System: L1210 leukemia ip in BDF1 mice, survival T/C
# protocol-description: NCI In Vivo Anticancer Drug Screen. Data for tumor model L1210 Leukemia (intraperitoneal) in B6D2F1 (BDF1) mice
# stated-conditions: endpoint: mean survival time; dose: 50.0 mg/kg/injection; schedule: Q01DX001 (ip); vehicle: saline; higher = longer survival
Inconclusive results and toxic doses are left out.
assay-readout: T/C

Notebook: pull reported T/C for L1210 leukemia ip in BDF1 mice, survival T/C, entry C(CC1CO1)C1CO1 (configuration not stated)
117 % of control

Notebook: pull reported T/C for L1210 leukemia ip in BDF1 mice, survival T/C, entry "O=c1oc2ccccc2cc1P(=O)(O)O"
91 % of control

Notebook: pull reported T/C for L1210 leukemia ip in BDF1 mice, survival T/C, entry "Cc1ccc(S(=O)(=O)OCCN(CCOS(=O)(=O)c2ccc(C)cc2)c2ccccc2)cc1"
117 % of control

Notebook: pull reported T/C for L1210 leukemia ip in BDF1 mice, survival T/C, entry CN(C)C1CCc2c(ccc3ccccc23)C1=O (configuration not stated)
99 % of control

Notebook: pull reported T/C for L1210 leukemia ip in BDF1 mice, survival T/C, entry O=COC1CC2CC1c1ccccc12 (configuration not stated)
105 % of control

Notebook: pull reported T/C for L1210 leukemia ip in BDF1 mice, survival T/C, entry "CS(=O)(=O)c1nc(N)nc2nc[nH]c12"
95 % of control

Notebook: pull reported T/C for L1210 leukemia ip in BDF1 mice, survival T/C, entry N#CC(CCCc1cccc(N2CN=C(N)N=C2N)c1)c1ccccc1 (configuration not stated)
96 % of control

Notebook: pull reported T/C for L1210 leukemia ip in BDF1 mice, survival T/C, entry "O=C(O)CN(CC(=O)O)c1ccccc1"
103 % of control

Notebook: pull reported T/C for L1210 leukemia ip in BDF1 mice, survival T/C, entry Cc1nn(C2CC(O)C(O)C(CO)O2)c(=O)[nH]c1=O (configuration not stated)
93 % of control

Notebook: pull reported T/C for L1210 leukemia ip in BDF1 mice, survival T/C, entry CCC(C)C(C)C(C)=O (configuration not stated)
110 % of control

Notebook: pull reported T/C for L1210 leukemia ip in BDF1 mice, survival T/C, entry NC(C(=O)O)c1cccc(F)c1 (configuration not stated)
98 % of control

Notebook: pull reported T/C for L1210 leukemia ip in BDF1 mice, survival T/C, entry "COc1cc(Cl)c(CC(=O)c2c[nH]c3ccccc23)cc1OC"
96 % of control

###

# Tested on: L1210 leukemia ip in BDF1 mice, survival T/C
# protocol-description: NCI In Vivo Anticancer Drug Screen. Data for tumor model L1210 Leukemia (intraperitoneal) in B6D2F1 (BDF1) mice
# stated-conditions: endpoint: mean survival time; dose: 50.0 mg/kg/injection; schedule: Q01DX001 (ip); vehicle: Klucel (hydroxypropylcellulose) (HPC); higher = longer survival
Inconclusive results and toxic doses are left out.
assay-readout: T/C

Notebook: pull reported T/C for L1210 leukemia ip in BDF1 mice, survival T/C, entry CC1CCCN(N=Nc2ccc(Br)cc2-c2nc(N)c3cc(Br)ccc3n2)C1 (stereo unspecified)
105 % of control

Notebook: pull reported T/C for L1210 leukemia ip in BDF1 mice, survival T/C, entry "Cc1nnc2ncnc(SCc3ccccc3)c2n1"
93 % of control

Notebook: pull reported T/C for L1210 leukemia ip in BDF1 mice, survival T/C, entry "CCOC(=O)c1[nH]c(-c2ccccc2)c(/C=N\O)c1-c1ccccc1"
105 % of control

Notebook: pull reported T/C for L1210 leukemia ip in BDF1 mice, survival T/C, entry "COc1ccc(N=Nc2ccccn2)cc1"
103 % of control

Notebook: pull reported T/C for L1210 leukemia ip in BDF1 mice, survival T/C, entry "CC(=O)Nc1cc(C)ccc1C"
101 % of control

Notebook: pull reported T/C for L1210 leukemia ip in BDF1 mice, survival T/C, entry "Oc1ccc2ccccc2c1/C=C/c1ccncc1"
102 % of control

Notebook: pull reported T/C for L1210 leukemia ip in BDF1 mice, survival T/C, entry "Cc1cc(Cl)c(N)[c]([Hg][I])c1F"
92 % of control

Notebook: pull reported T/C for L1210 leukemia ip in BDF1 mice, survival T/C, entry "COc1ccccc1-n1c(=O)c(N=Nc2ccc(Cl)cc2)c(O)n(-c2ccccc2Cl)c1=S"
94 % of control

Notebook: pull reported T/C for L1210 leukemia ip in BDF1 mice, survival T/C, entry Cc1cccc2c1NC(c1ccccc1)C(C)S2(=O)=O (stereo unspecified)
106 % of control

Notebook: pull reported T/C for L1210 leukemia ip in BDF1 mice, survival T/C, entry O=C1C=C(N2C3C4CCC(C4)C32)C(=O)C=C1c1ccccc1 (stereo unspecified)
96 % of control

Notebook: pull reported T/C for L1210 leukemia ip in BDF1 mice, survival T/C, entry CCOC(=O)C(CC)(OO)c1ccncc1Br (stereo unspecified)
104 % of control

###

I'd appreciate it if you could supply T/C values for the items below.
# Tested on: L1210 leukemia ip in BDF1 mice, survival T/C
# protocol-description: NCI In Vivo Anticancer Drug Screen. Data for tumor model L1210 Leukemia (intraperitoneal) in B6D2F1 (BDF1) mice
# stated-conditions: endpoint: mean survival time; dose: 100.0 mg/kg/injection; schedule: Q01DX009 (ip); vehicle: Klucel (hydroxypropylcellulose) (HPC); higher = longer survival
Toxic doses and inconclusive results are not listed.

Given the compound "Nc1ccc(Cl)c(C(=O)O)c1" , what is its reported T/C?
111 % of control

Given the compound "COc1ccc(C(=O)NC(=S)Nc2cccc(Cl)c2)cc1" , what is its reported T/C?
91 % of control

Given the compound CC(C)(C)OC(=O)C(CSSCC(NC(=O)OCc1ccccc1)C(=O)OC(C)(C)C)NC(=O)OCc1ccccc1 (configuration not stated) , what is its reported T/C?
98 % of control

Given the compound "CC(=O)Nc1cc([As](=O)(O)O)ccc1O" , what is its reported T/C?
102 % of control

Given the compound "CN(C)c1ccc(C=O)c(F)c1" , what is its reported T/C?
96 % of control

Given the compound "O=C(O)c1ccc(N=Nc2nc3ccccc3[nH]2)cc1" , what is its reported T/C?
93 % of control

Given the compound CN(C)c1ccc(/C=N/NC(=O)C(O)C(O)C(O)C(O)CO)cc1 (configuration not stated) , what is its reported T/C?
97 % of control

Given the compound "CCOC(=O)c1ccc(NC(=O)Nc2ccc(F)cc2)cc1" , what is its reported T/C?
90 % of control

Given the compound "COc1ccc(O)c(/C=N/NC(N)=S)c1" , what is its reported T/C?
100 % of control

Given the compound "COC(=O)CNc1ccc(S(=O)(=O)c2ccc(N)cc2)cc1" , what is its reported T/C?
107 % of control

Given the compound "CCOC(=O)C(C)(C)Oc1ccc(OC(C)(C)C(=O)OCC)cc1" , what is its reported T/C?
93 % of control

Given the compound CC(C)CCCC(C)CC1CC(C)CCC1O (configuration not stated) , what is its reported T/C?
93 % of control

Just for reference, PubChem BioAssay AID248 is where these values come from.
